# TGI listing for each entry below
# Tested on: LXFL 529 NSCLC
# assay-method-text: NCI tumour cell line growth inhibition, 48 h

# compound, TGI
rows = [
    ("C=COCCCOc1ccccc1", "> 100 µM"),
    ("CCN(CC)CC1CCCCCCCCCCC1=O (configuration not stated)", "> 100 µM"),
    ("Cc1nn(-c2ccccc2)c2nc(N3CCOCC3)nnc12", "> 100 µM"),
    ("O=[N+]([O-])c1ccc(C2=Nn3cnnc3SC2)o1", "26.4 µM"),
    ("COC(=O)c1cc2c(s1)C(=O)c1ccccc1-2", "> 100 µM"),
    ("O=S1(=O)C[C@H](O)[C@H](O)CS1", "> 100 µM"),
    ("COc1cc([C@H]2Oc3cc(O)c4c(=O)cc(-c5ccccc5)oc4c3O[C@@H]2CO)ccc1O", "77 µM"),
    ("CC(C)N(C(=O)C12C3C4C5(C#N)C3C1(C#N)C5C42I)C(C)C (configuration not stated)", "> 100 µM"),
    ("CN(C)/C=N/c1nc2c(ncn2C2OC(CO)C(O)C2O)c(=O)[nH]1 (configuration not stated)", "> 100 µM"),
    ("CNC(=O)N(C)N=NCCCl", "> 100 µM"),
    ("O=C1C(Cl)N(c2ccc(Cl)cc2)C1c1c[nH]c2ccccc12 (configuration not stated)", "30.2 µM"),
    ("CCOc1ccccc1C=C1c2ccccc2C(=O)c2ccccc21", "> 100 µM"),
]
